Collected hemolysis at 1 h, 250 µM values appear next to each entry.
# protocol.description: Induction of hemolysis in human erythrocytes at 250 uM incubated for 1 hr by microtiter plater reader analysis
# Assay type: toxicity, cell-based, Erythrocyte
# condition.set: read-out: Activity
Returns: string containing the numeric result and its unit.

The cases that follow already have their hemolysis at 1 h, 250 µM on record.
chemical.structure | experimental.result
CN[C@H](CC(C)C)C(=O)N[C@H]1C(=O)N[C@@H](CC(N)=O)C(=O)N[C@H]2C(=O)N[C@H]3C(=O)N[C@H](C(=O)N[C@H](C(=O)O)c4cc(O)cc(O)c4-c4cc3ccc4O)[C@H](O)c3ccc(c(Cl)c3)Oc3cc2cc(c3O[C@@H]2O[C@H](CO)[C@@H](O)[C@H](O)[C@H]2O[C@H]2C[C@](C)(NCc3ccc(C(=O)NCCC[N+](C)(C)Cc4ccc(-c5ccccc5)cc4)cc3)[C@H](O)[C@H](C)O2)Oc2ccc(cc2Cl)[C@H]1O | 0%
CCCCCCCCNC(=O)C[N+](C)(C)CCCNC(=O)c1ccc(CN[C@@]2(C)C[C@H](O[C@H]3[C@H](Oc4c5cc6cc4Oc4ccc(cc4Cl)[C@@H](O)[C@@H](NC(=O)[C@@H](CC(C)C)NC)C(=O)N[C@@H](CC(N)=O)C(=O)N[C@H]6C(=O)N[C@H]4C(=O)N[C@H](C(=O)N[C@H](C(=O)O)c6cc(O)cc(O)c6-c6cc4ccc6O)[C@H](O)c4ccc(c(Cl)c4)O5)O[C@H](CO)[C@@H](O)[C@@H]3O)O[C@@H](C)[C@H]2O)cc1 | 1%

Briefly, hemolysis at 1 h, 250 µM measured for CCCCCCNC(=O)C[N+](C)(C)CCCNC(=O)c1ccc(CN[C@@]2(C)C[C@H](O[C@H]3[C@H](Oc4c5cc6cc4Oc4ccc(cc4Cl)[C@@H](O)[C@@H](NC(=O)[C@@H](CC(C)C)NC)C(=O)N[C@@H](CC(N)=O)C(=O)N[C@H]6C(=O)N[C@H]4C(=O)N[C@H](C(=O)N[C@H](C(=O)O)c6cc(O)cc(O)c6-c6cc4ccc6O)[C@H](O)c4ccc(c(Cl)c4)O5)O[C@H](CO)[C@@H](O)[C@@H]3O)O[C@@H](C)[C@H]2O)cc1 : 1%

Consider CN[C@H](CC(C)C)C(=O)N[C@H]1C(=O)N[C@@H](CC(N)=O)C(=O)N[C@H]2C(=O)N[C@H]3C(=O)N[C@H](C(=O)N[C@H](C(=O)O)c4cc(O)cc(O)c4-c4cc3ccc4O)[C@H](O)c3ccc(c(Cl)c3)Oc3cc2cc(c3O[C@@H]2O[C@H](CO)[C@@H](O)[C@H](O)[C@H]2O[C@H]2C[C@](C)(NCc3ccc(C(=O)NCCC[N+](C)(C)Cc4cccc5ccccc45)cc3)[C@H](O)[C@H](C)O2)Oc2ccc(cc2Cl)[C@H]1O . Its measured hemolysis at 1 h, 250 µM is 0%

The recorded hemolysis at 1 h, 250 µM for entry CCCCCCCCCCNC(=O)C[N+](C)(C)CCCNC(=O)c1ccc(CN[C@@]2(C)C[C@H](O[C@H]3[C@H](Oc4c5cc6cc4Oc4ccc(cc4Cl)[C@@H](O)[C@@H](NC(=O)[C@@H](CC(C)C)NC)C(=O)N[C@@H](CC(N)=O)C(=O)N[C@H]6C(=O)N[C@H]4C(=O)N[C@H](C(=O)N[C@H](C(=O)O)c6cc(O)cc(O)c6-c6cc4ccc6O)[C@H](O)c4ccc(c(Cl)c4)O5)O[C@H](CO)[C@@H](O)[C@@H]3O)O[C@@H](C)[C@H]2O)cc1 equals 1%

So for CN[C@H](CC(C)C)C(=O)N[C@H]1C(=O)N[C@@H](CC(N)=O)C(=O)N[C@H]2C(=O)N[C@H]3C(=O)N[C@H](C(=O)N[C@H](C(=O)O)c4cc(O)cc(O)c4-c4cc3ccc4O)[C@H](O)c3ccc(c(Cl)c3)Oc3cc2cc(c3O[C@@H]2O[C@H](CO)[C@@H](O)[C@H](O)[C@H]2O[C@H]2C[C@](C)(NCc3ccc(C(=O)NCCC[N+](C)(C)Cc4ccccc4)cc3)[C@H](O)[C@H](C)O2)Oc2ccc(cc2Cl)[C@H]1O , the logged hemolysis at 1 h, 250 µM turned out to be 0%
